Value source: ChEMBL document CHEMBL4428125

Target: Adenosine receptor A1 (Rattus norvegicus) (UniProt P25099)
Sequence (whole entry): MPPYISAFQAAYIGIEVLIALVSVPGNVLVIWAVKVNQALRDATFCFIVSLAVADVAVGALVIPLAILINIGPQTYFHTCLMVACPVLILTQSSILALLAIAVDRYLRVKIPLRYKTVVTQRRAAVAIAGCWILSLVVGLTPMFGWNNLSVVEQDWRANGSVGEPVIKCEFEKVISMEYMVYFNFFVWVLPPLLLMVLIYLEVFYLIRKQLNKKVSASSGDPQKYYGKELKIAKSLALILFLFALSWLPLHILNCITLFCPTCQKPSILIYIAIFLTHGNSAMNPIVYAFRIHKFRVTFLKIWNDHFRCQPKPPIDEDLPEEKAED
Experiment: Displacement of [3H]CCPA from A1 receptor in rat brain cortex membranes at 1.5 uM by liquid scintillation counting method
Assay type: cell membranes
Binarize Activity at 10%; below is 1 (yes), at or above is 0 (no).

Reference set, count: 6
Query :: Below 10% on Activity? Entry Cn1c(=O)c2c(nc3n2CCN(CCCc2ccccc2)C3)n(C)c1=O
Result :: 0 (no)

Query :: Below 10% on Activity? Entry COc1cccc2c1CC[C@H](N1CCn3c(nc4c3c(=O)n(C)c(=O)n4C)C1)C2
Result :: 0 (no)

Query :: Below 10% on Activity? Entry Cn1c(=O)c2c(nc3n2CCN(CCc2c(Cl)cccc2Cl)C3)n(C)c1=O
Result :: 0 (no)

Query :: Below 10% on Activity? Entry COc1ccccc1CCN1CCn2c(nc3c2c(=O)n(C)c(=O)n3C)C1
Result :: 1 (yes)

Query :: Below 10% on Activity? Entry Cn1c(=O)c2c(nc3n2CCN(CCc2ccc4c(c2)OCO4)C3)n(C)c1=O
Result :: 1 (yes)

Query :: Below 10% on Activity? Entry Cn1c(=O)c2c(nc3n2CCN(c2cccc4ccccc24)C3)n(C)c1=O
Result :: 0 (no)

***
Query :: Below 10% on Activity? Entry C#CCN1CCn2c(nc3c2c(=O)n(C)c(=O)n3C)C1
Result :: 0 (no)

Query :: Below 10% on Activity? Entry Cn1c(=O)c2c(nc3n2CCN([C@@H]2CCc4ccccc42)C3)n(C)c1=O
Result :: 0 (no)

Query :: Below 10% on Activity? Entry Cn1c(=O)c2c(nc3n2CCN(CCc2ccc(O)cc2)C3)n(C)c1=O
Result :: 0 (no)

* * *

Molecular target: Adenosine receptor A2a (Rattus norvegicus, UniProt P30543)
Sequence (P30543 whole entry): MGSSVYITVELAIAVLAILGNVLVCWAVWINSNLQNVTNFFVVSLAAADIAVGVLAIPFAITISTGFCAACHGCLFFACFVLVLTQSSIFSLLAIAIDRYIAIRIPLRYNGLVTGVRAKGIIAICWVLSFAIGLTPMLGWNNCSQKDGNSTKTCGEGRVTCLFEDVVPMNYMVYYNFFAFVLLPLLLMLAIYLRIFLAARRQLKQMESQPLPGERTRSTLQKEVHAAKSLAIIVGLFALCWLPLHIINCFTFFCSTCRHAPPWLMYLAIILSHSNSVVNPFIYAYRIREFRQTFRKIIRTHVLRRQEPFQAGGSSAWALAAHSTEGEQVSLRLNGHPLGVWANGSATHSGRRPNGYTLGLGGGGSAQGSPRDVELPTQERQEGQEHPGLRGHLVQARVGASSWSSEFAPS
result_type: Ki

Use these answered entries as a reference point.
Query :: # get_value(readout='Ki', item= Cn1c(=O)c2c(nc3n2CCN(C2CCN(Cc4ccccc4)CC2)C3)n(C)c1=O )
Result :: > 1000 nM

Query :: # get_value(readout='Ki', item= Cn1c(=O)c2c(nc3n2CCN(CCc2ccc(Cl)cc2C(F)(F)F)C3)n(C)c1=O )
Result :: 2910 nM

Query :: # get_value(readout='Ki', item= Cn1c(=O)c2c(nc3n2CCN(c2ccc(Br)cc2)C3)n(C)c1=O )
Result :: 3900 nM

Query :: # get_value(readout='Ki', item= COc1ccccc1CCN1CCn2c(nc3c2c(=O)n(C)c(=O)n3C)C1 )
Result :: > 1000 nM

Query :: # get_value(readout='Ki', item= Cn1c(=O)c2c(nc3n2CCN(Cc2csc(-c4cccc(Cl)c4)n2)C3)n(C)c1=O )
Result :: 160 nM

***
Query :: # get_value(readout='Ki', item= Cn1c(=O)c2c(nc3n2CCN(CCc2ccc(Cl)cc2Cl)C3)n(C)c1=O )
Result :: 2250 nM

Query :: # get_value(readout='Ki', item= Cn1c(=O)c2c(nc3n2CCN(c2cccc(F)c2)C3)n(C)c1=O )
Result :: 2920 nM

Query :: # get_value(readout='Ki', item= Cn1c(=O)c2c(nc3n2CCN(CCc2ccc(F)c(F)c2)C3)n(C)c1=O )
Result :: > 1000 nM

Query :: # get_value(readout='Ki', item= COc1cccc(N2CCn3c(nc4c3c(=O)n(C)c(=O)n4C)C2)c1 )
Result :: 1010 nM

Query :: # get_value(readout='Ki', item= Cn1c(=O)c2c(nc3n2CCN(CC#Cc2cccc(Cl)c2)C3)n(C)c1=O )
Result :: > 1000 nM

Query :: # get_value(readout='Ki', item= Cn1c(=O)c2c(nc3n2CCN(CCc2ccc4c(c2)OCO4)C3)n(C)c1=O )
Result :: 6170 nM

Query :: # get_value(readout='Ki', item= Cn1c(=O)c2c(nc3n2CCN(CCc2ccccc2Br)C3)n(C)c1=O )
Result :: > 1000 nM
